- MEASURED_TARGET: Human PD-L1/PD-1 (Homo sapiens)
- Construct: made in house; host or cells: HEK293T
- Sequence (Q9NZQ7 with tags, fused parts or gaps): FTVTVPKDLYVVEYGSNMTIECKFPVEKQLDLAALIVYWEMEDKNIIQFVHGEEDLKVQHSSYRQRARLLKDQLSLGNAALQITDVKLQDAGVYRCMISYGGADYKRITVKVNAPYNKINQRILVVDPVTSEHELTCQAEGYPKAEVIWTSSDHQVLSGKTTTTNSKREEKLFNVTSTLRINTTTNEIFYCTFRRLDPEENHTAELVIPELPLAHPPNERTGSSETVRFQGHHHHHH
- TEST_PROTOCOL: HTRF PD-1-Ig/PD-L1-His binding assay (human PD-L1)
- SETUP_CONDITIONS: cluster symbol; read-out: HTRF IC50 cluster
pIC50: −log10 of the molar value. Starred links: 1 amine or outer side, 2 acyl side, 3 side chain; linkers in the order of their positions; H or OH if unused. Positions of bridges follow the written chain, without caps; N, C: chain ends. Non-standard residues stand in square brackets, D forms with d. Residues, ends and D or L forms follow the SMILES beside them. X10 = O=C([C@H](Cc1ccc(F)c(Cl)c1)N[*:1])[*:2]; NMeF = CN[C@@H](Cc1ccccc1)C(=O)O; NMeNle = CCCC[C@H](NC)C(=O)O; Sar = CNCC(=O)O
PROPERTY_LABEL: pIC50

COMPOUND: CCCC[C@H]1C(=O)N(C)CC(=O)N[C@@H](CC(=O)O)C(=O)N[C@@H](C(C)C)C(=O)N(C)[C@@H](Cc2ccccc2)C(=O)N[C@@H](Cc2ccc(O)cc2)C(=O)N(C)CC(=O)N[C@@H](Cc2c[nH]c3ccccc23)C(=O)N[C@@H](Cc2ccc(O)cc2)C(=O)N[C@@H](CC(C)C)C(=O)N[C@H](C(=O)NCC(N)=O)CSCC(=O)N[C@@H](Cc2ccc(F)c(Cl)c2)C(=O)N(C)[C@@H](Cc2ccccc2)C(=O)N1C [Example 3567] ({CH2CO}-[X10][NMeF][NMeNle][Sar]DV[NMeF]Y[Sar]WYLCG-NH2; thioether N-13)
VALUE_MEASURED: 8.17 to 9.41

---

- MEASURED_TARGET: LK35.2-hPD-L1 cells / PE-labeled PD-1-Ig (Homo sapiens, UniProt Q9NZQ7)
- Construct: expressed in transfected cells; host or cells: LK35.2 mouse B cell line
- Sequence (Q9NZQ7 19-290): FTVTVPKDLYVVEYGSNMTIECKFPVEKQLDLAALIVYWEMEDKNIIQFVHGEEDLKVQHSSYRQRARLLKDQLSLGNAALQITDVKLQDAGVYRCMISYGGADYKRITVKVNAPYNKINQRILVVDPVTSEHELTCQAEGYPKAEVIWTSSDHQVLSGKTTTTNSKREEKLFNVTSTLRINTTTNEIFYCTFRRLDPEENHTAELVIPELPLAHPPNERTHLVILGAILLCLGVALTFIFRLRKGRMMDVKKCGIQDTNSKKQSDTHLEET
- TEST_PROTOCOL: LK35.2-hPD-L1 cell binding high-content screening assay
- Assay type: cell-based
- SETUP_CONDITIONS: cluster symbol; cell line of CBA not given (LK35.2-hPD-L1 or 293T-hPD-L1); read-out: CBA IC50 cluster
pIC50: −log10 of the molar value. Positions of bridges follow the written chain, without caps; N, C: chain ends. Non-standard residues stand in square brackets, D forms with d. Residues, ends and D or L forms follow the SMILES beside them. *: point of attachment. Cyclobutanecarbonyl = O=C(C1CCC1)*; NMeA = CN[C@@H](C)C(=O)O; Dap = NC[C@H](N)C(=O)O; Sar = CNCC(=O)O
PROPERTY_LABEL: pIC50

MOLECULE: CCCC[C@H]1C(=O)N(C)[C@@H](CCCC)C(=O)N[C@@H](C)C(=O)N[C@H](C(=O)NCC(N)=O)CSCC(=O)N[C@@H](Cc2ccc(O)cc2)C(=O)N(C)[C@@H](C)C(=O)N[C@@H](CC(N)=O)C(=O)N2CCC[C@H]2C(=O)N[C@@H](Cc2cnc[nH]2)C(=O)N[C@@H](CCC(=O)O)C(=O)N2C[C@H](O)C[C@H]2C(=O)N[C@@H](Cc2c[nH]c3ccccc23)C(=O)N[C@@H](CO)C(=O)N[C@@H](Cc2c[nH]c3ccccc23)C(=O)N1C [Example 1168]
MEASURED_TARGET: LK35.2-hPD-L1 cells / PE-labeled PD-1-Ig (Homo sapiens, UniProt Q9NZQ7)
PROPERTY_LABEL: pIC50
VALUE_MEASURED: 8.33 to 9.80
--
MOLECULE: CC(C)C[C@@H]1NC(=O)[C@H](Cc2c[nH]cn2)NC(=O)[C@@H]2CCCN2C(=O)[C@H](CC(N)=O)NC(=O)[C@H](C)N(C)C(=O)[C@H](Cc2ccccc2)NC(=O)CSC[C@@H](C(=O)NCC(N)=O)NC(=O)[C@H](CCCNC(=N)N)NC(=O)[C@H](C)N(C)C(=O)[C@H](CNC(=O)C2CCC2)NC(=O)[C@H](Cc2c[nH]c3ccccc23)NC(=O)[C@H](CO)NC(=O)[C@H](Cc2c[nH]c3ccccc23)NC(=O)CN(C)C1=O [Example 1033] ({CH2CO}-F[NMeA]NPHL[Sar]WSW[Dap](Cyclobutanecarbonyl)[NMeA]RCG-NH2; thioether N-14)
MEASURED_TARGET: LK35.2-hPD-L1 cells / PE-labeled PD-1-Ig (Homo sapiens, UniProt Q9NZQ7)
PROPERTY_LABEL: pIC50
VALUE_MEASURED: < 7.13
